# Measurement target: α4β7 integrin binding to human MAdCAM-1-Ig (Homo sapiens, UniProt P13612+P26010)
# Construct: endogenous in cells; host or cells: RPMI 8866 cells
# Sequence (P13612 34-1032): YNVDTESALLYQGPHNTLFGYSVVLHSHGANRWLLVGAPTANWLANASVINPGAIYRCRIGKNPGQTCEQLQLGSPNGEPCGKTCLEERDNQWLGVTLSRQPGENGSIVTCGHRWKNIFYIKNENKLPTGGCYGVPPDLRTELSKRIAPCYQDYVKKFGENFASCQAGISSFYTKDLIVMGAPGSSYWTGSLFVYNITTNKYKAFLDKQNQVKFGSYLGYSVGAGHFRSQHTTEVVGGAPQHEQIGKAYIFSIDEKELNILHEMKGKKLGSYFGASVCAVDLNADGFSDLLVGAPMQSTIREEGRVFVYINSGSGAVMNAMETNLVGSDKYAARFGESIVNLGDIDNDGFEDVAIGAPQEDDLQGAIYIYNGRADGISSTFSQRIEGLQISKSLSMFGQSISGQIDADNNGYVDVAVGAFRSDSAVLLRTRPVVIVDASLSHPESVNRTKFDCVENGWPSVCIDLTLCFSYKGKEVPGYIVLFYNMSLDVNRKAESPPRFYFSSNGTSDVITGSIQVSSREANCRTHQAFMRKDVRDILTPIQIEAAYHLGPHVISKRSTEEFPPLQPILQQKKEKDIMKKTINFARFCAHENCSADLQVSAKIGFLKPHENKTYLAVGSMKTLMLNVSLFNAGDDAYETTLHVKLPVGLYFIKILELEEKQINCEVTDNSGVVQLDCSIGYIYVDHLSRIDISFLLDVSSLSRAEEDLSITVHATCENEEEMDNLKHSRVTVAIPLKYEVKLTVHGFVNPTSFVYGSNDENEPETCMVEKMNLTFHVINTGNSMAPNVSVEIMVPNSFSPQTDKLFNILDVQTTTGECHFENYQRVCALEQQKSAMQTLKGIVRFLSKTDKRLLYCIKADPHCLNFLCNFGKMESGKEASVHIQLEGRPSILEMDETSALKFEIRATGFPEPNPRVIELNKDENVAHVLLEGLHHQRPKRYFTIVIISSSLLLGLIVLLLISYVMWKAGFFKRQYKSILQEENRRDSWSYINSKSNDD
# Sequence (P26010 20-798): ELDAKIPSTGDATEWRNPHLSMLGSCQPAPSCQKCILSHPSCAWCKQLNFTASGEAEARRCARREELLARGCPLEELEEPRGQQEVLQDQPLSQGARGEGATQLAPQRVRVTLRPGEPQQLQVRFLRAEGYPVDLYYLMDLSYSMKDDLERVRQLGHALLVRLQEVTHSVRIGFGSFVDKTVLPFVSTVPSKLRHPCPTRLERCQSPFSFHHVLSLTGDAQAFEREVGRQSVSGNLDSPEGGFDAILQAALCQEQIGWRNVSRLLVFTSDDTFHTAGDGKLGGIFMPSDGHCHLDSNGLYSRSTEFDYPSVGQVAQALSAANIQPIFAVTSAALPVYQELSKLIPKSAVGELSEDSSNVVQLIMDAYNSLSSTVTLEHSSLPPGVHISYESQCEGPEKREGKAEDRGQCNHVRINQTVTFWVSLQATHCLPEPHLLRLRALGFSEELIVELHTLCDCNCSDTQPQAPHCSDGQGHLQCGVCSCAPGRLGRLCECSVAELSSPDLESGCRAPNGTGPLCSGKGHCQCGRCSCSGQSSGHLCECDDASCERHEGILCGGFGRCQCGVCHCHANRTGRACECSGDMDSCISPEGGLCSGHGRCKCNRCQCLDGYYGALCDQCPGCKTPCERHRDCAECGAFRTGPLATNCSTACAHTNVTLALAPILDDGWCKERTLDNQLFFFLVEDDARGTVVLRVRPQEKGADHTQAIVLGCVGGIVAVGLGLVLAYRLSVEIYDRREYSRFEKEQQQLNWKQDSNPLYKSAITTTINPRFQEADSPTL
# Method summary: Adhesion inhibition assay (BCEF-labeled RPMI 8866 cells on huMAdCAM-1-Ig coated plates)
# Format: cell-based
Readout type: IC50 (nM)
Report the figure in nM without appending any unit label.

Solved entries:
Cc1cccc(N2C(=O)NC(=O)/C(=C/c3c[nH]c4ccccc34)C2=O)c1 [Example 17]    2930
O=C1NC(=O)N(c2ccccc2Cl)C(=O)/C1=C\C=C\c1ccccc1 [Example 43]    1900
O=C1NC(=O)N(c2cccc(Cl)c2)C(=O)/C1=C/c1c[nH]c2ccccc12 [Example 37]    2750

q: Query IC50 for Cc1ccc(N2C(=O)NC(=O)/C(=C\C=C\c3ccccc3)C2=O)cc1 [Example 42]
a: 2600
